Biological target: human IL-6 (human, UniProt P05231 30-212)
Sequence (P05231 30-212 limits assumed): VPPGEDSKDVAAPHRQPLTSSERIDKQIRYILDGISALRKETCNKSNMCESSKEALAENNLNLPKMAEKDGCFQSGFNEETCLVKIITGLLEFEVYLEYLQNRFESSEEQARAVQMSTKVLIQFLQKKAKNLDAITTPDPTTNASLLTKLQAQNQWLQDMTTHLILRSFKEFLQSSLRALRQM
Test: SPR Biacore, supernatant, Protein A capture, 37 C
quantityMeasured: kon (M⁻¹ s⁻¹)
Numeric answer only, unit M⁻¹ s⁻¹ assumed.

The examples below pair each entry with its known result.
[
  {
    "binder": "Anti-IL-6 antibody, heavy chain S35H, G66D, L100F / light chain WT (antibody, IgG1, V domains shown, IgG1; variable domains only) VH: EVQLVESGGGLVQPGGSLRLSCAASGFTFSPFAMHWVRQAPGKGLEWVAKISPGGSWTYYSDTVTDRFTFSLDTSKSTAYLQMNSLRAEDTAVYYCARQFWGYYALDIWGQGTLVTVSS VL: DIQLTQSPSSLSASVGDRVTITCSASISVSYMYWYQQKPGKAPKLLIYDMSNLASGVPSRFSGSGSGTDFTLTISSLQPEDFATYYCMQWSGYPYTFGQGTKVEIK",
    "unitOfMeasurement": "M⁻¹ s⁻¹",
    "kon": "2.51e+06"
  },
  {
    "binder": "Anti-IL-6 antibody, heavy chain S35H, G66D, L100S / light chain M32L, M50D, N52S, M88Q (antibody, IgG1, V domains shown, IgG1; variable domains only; VL is variant III) VH: EVQLVESGGGLVQPGGSLRLSCAASGFTFSPFAMHWVRQAPGKGLEWVAKISPGGSWTYYSDTVTDRFTFSLDTSKSTAYLQMNSLRAEDTAVYYCARQSWGYYALDIWGQGTLVTVSS VL: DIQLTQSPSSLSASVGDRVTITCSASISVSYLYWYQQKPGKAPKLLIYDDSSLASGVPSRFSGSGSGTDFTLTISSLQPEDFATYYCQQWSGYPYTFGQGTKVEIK",
    "unitOfMeasurement": "M⁻¹ s⁻¹",
    "kon": "8.03e+06"
  },
  {
    "binder": "Anti-IL-6 antibody, heavy chain S35H, G66D, Q99L / light chain WT (antibody, IgG1, V domains shown, IgG1; variable domains only) VH: EVQLVESGGGLVQPGGSLRLSCAASGFTFSPFAMHWVRQAPGKGLEWVAKISPGGSWTYYSDTVTDRFTFSLDTSKSTAYLQMNSLRAEDTAVYYCARLLWGYYALDIWGQGTLVTVSS VL: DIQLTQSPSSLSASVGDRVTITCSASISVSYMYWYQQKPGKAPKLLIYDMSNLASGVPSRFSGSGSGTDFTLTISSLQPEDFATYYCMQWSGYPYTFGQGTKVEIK",
    "unitOfMeasurement": "M⁻¹ s⁻¹",
    "kon": "1.07e+06"
  }
]

Anti-IL-6 antibody, heavy chain S35H, G66D, L100A / light chain WT (antibody, IgG1, V domains shown, IgG1; variable domains only) VH: EVQLVESGGGLVQPGGSLRLSCAASGFTFSPFAMHWVRQAPGKGLEWVAKISPGGSWTYYSDTVTDRFTFSLDTSKSTAYLQMNSLRAEDTAVYYCARQAWGYYALDIWGQGTLVTVSS VL: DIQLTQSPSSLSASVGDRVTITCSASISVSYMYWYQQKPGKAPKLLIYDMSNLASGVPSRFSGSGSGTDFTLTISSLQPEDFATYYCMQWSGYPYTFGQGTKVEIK yielded kon of 4.52e+06

The binder identified as Anti-IL-6 antibody, heavy chain S35H, G66D, Q99G / light chain WT (antibody, IgG1, V domains shown, IgG1; variable domains only) VH: EVQLVESGGGLVQPGGSLRLSCAASGFTFSPFAMHWVRQAPGKGLEWVAKISPGGSWTYYSDTVTDRFTFSLDTSKSTAYLQMNSLRAEDTAVYYCARGLWGYYALDIWGQGTLVTVSS VL: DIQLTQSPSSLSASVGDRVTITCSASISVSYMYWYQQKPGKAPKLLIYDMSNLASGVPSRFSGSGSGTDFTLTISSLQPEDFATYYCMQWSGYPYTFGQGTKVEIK registered its kon at 3.43e+06

Origin of the recorded values: patent US20240209076A1
